# target-desc: WDR96; also: reference of the scale not given here
# assay-name: pooled miR-30 sensor sort-seq; sequence = guide strand
# condition: shRNA
Lab note: compare sensor-assay potency score (higher = more potent) against -0.2. Equal or greater, write 1.0. Smaller, write 0.0.

Illustrative cases are given below, each with its answer.
- entry-sequence: "TAATCTTTCAACTTCAGTCTGT"
  target-desc: "WDR96"
  group-label: 1.0
- entry-sequence: "TACATCTTTACTTTCCATCATG"
  target-desc: "WDR96"
  group-label: 0.0
- entry-sequence: "TAGATTTCCGAACAGCTTCTGA"
  target-desc: "WDR96"
  group-label: 0.0
- entry-sequence: "TTACACAAAATGATACTCGATT"
  target-desc: "WDR96"
  group-label: 1.0
- entry-sequence: "TTGCCTTTCAATTTGGTCCTTC"
  target-desc: "WDR96"
  group-label: 1.0
- entry-sequence: "TTTCTCTAGAGCTTAATTCTTC"
  target-desc: "WDR96"
  group-label: 0.0

Say whether TCATCTTGCACAACAAGCGTTC shows sensor-assay potency score (higher = more potent) of -0.2 or more. 0.0

Say whether TACACAAGCACAATCCTCCAGC shows sensor-assay potency score (higher = more potent) of -0.2 or more. 1.0

Say whether TTGCTGATCATAAACGACGTGC shows sensor-assay potency score (higher = more potent) of -0.2 or more. 1.0
